- tested on: Tyrosine-protein kinase JAK3 (Homo sapiens)
- Sequence (P52333 whole entry): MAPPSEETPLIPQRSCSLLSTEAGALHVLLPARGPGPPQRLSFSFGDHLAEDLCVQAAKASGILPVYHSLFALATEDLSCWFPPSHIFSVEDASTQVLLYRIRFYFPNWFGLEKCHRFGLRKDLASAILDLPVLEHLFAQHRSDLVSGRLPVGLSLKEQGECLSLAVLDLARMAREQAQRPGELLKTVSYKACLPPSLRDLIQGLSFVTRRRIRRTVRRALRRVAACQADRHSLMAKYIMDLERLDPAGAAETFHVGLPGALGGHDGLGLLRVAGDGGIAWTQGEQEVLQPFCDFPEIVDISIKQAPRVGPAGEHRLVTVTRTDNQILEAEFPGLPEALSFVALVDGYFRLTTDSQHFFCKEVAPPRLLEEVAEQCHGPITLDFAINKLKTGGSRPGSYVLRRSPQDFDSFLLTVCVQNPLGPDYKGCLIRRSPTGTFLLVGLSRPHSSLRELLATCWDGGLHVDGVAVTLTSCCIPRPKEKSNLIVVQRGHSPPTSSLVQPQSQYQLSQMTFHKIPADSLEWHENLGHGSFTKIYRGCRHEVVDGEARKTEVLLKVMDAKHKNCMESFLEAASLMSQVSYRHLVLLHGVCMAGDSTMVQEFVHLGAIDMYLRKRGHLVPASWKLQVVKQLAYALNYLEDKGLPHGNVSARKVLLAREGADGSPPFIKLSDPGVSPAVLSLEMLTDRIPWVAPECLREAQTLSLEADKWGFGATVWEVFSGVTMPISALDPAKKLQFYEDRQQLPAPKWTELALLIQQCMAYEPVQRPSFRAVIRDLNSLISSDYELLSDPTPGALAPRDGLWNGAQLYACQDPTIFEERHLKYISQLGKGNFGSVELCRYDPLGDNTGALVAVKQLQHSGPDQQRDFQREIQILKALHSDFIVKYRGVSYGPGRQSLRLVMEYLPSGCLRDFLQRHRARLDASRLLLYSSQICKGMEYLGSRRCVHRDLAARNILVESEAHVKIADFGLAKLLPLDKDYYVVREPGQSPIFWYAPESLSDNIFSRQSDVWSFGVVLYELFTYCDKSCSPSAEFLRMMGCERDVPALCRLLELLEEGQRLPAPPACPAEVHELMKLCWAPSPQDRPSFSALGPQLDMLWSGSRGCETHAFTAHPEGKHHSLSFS
- test details: Inhibition of human JAK3 using poly (Glu:Tyr) as substrate

- record smiles: "Cc1cccc(Nc2ccnc(Nc3ccc(N4CCN(C)CC4)cc3)n2)c1"
  u: "µM"
  qualifier operator: "="
  IC50: 2.1
- record smiles: "NS(=O)(=O)c1cccc(Nc2ccnc(Nc3ccc(N4CCOCC4)cc3)n2)c1"
  u: "µM"
  qualifier operator: "="
  IC50: 7.1
- record smiles: "Cc1cc(Nc2ncc(C#N)c(Nc3cccc(S(=O)(=O)NC(C)(C)C)c3)n2)ccc1N1CCN(C)CC1"
  u: "µM"
  qualifier operator: ">"
  IC50: 100
- record smiles: "Cc1cc(Nc2nccc(Nc3cccc(S(N)(=O)=O)c3)n2)ccc1N1CCN(C)CC1"
  u: "µM"
  qualifier operator: "="
  IC50: 4.1
- record smiles: "Cc1cccc(Nc2ccnc(Nc3ccc(N4CCN(C)CC4)c(C)c3)n2)c1"
  u: "µM"
  qualifier operator: "="
  IC50: 1.8
